Target: DopC2 from Daphnia magna (Daphnia magna)
Construct: cDNA cloned from adult D. magna RNA, KSM vector, Xenopus oocytes; homomeric; LOC116923538 assigned to DopC2 by printed order only (DopC1 = LOC116927457)
Sequence (A0A0P6GTI1 36-620): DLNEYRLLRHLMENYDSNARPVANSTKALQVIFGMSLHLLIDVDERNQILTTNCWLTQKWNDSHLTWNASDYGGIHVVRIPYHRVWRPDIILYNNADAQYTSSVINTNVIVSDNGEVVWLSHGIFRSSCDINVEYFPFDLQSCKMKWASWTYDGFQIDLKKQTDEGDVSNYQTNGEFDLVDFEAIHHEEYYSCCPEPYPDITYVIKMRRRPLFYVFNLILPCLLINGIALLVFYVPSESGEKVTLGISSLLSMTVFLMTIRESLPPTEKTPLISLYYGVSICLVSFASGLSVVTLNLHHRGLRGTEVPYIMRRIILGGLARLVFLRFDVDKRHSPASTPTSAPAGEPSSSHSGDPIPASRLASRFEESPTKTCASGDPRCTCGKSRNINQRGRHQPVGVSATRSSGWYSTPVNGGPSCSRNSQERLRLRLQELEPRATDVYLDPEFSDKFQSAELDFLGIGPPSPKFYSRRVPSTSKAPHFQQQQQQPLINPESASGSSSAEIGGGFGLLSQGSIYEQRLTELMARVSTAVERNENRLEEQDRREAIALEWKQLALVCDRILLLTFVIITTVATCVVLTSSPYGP
Test: two-electrode voltage clamp, Xenopus oocytes
Conditions: agonist; ND96, -60 mV
Test Readout: EC50 (µM)
Give the value in µM but do not write µM after it.

{"Compound": "NCCc1ccc(O)c(O)c1", "Unit Annotation": "µM", "EC50": 4.6}

Moving on to another compound below.
QUERY: Dear colleague, I am looking for the recorded EC50 of the following compound: NCC(O)c1ccc(O)c(O)c1 (racemic) [norepinephrine]
RESULT: 36

---

Target: DopC1 from Aplysia californica (Aplysia californica, UniProt A0ABM0GHJ1)
Construct: gene LOC101853763; full-length synthetic cDNA (GeneArt), KSM vector, Xenopus oocytes; homomeric channel
Sequence (A0ABM0GHJ1 25-518): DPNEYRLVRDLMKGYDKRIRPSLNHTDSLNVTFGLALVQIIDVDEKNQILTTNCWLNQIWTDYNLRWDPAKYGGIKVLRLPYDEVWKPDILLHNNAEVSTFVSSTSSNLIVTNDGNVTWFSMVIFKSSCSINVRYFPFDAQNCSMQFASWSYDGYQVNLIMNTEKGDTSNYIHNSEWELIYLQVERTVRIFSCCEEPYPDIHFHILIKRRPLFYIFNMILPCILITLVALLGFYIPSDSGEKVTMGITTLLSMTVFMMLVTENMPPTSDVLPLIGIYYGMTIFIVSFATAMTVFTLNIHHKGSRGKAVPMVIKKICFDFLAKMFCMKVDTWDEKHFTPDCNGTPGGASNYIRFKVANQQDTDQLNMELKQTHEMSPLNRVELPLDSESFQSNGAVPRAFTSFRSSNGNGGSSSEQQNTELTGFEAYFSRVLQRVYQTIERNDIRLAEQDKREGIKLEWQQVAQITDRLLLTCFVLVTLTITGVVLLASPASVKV
Assay: two-electrode voltage clamp, Xenopus oocytes
Format: cell-based
As shown below, each of these compounds has a reported EC50 value.
Give the value in µM but do not write µM after it.

{"Compound": "NCC(O)c1ccc(O)c(O)c1 (racemic) [norepinephrine]", "EC50, µM": 8.4}

QUERY: Dear colleague, I am looking for the recorded EC50 of the following compound: NCCc1ccc(O)c(O)c1 [dopamine]
RESULT: 3.5

---

Target: DopC1 from Apis mellifera (Apis mellifera)
Construct: full-length synthetic cDNA (GeneArt), KSM vector, Xenopus oocytes; homomeric channel
Sequence (A0A7M7R6H2 91-549): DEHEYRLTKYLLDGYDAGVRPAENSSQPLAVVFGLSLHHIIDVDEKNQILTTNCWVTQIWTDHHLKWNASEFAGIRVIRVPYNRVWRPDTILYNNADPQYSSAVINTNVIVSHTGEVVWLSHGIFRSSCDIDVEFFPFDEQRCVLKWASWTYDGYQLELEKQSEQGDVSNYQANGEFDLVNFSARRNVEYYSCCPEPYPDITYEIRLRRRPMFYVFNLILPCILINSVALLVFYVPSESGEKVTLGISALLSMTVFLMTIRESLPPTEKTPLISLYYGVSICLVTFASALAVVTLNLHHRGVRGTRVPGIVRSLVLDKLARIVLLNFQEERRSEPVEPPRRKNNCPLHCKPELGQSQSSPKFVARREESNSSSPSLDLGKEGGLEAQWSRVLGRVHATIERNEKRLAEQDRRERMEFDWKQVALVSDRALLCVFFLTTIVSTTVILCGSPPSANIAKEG
Assay: two-electrode voltage clamp, Xenopus oocytes
Test Readout: pEC50
// pEC50: -log10(molar conc.)

{"Compound": "NCCc1ccc(O)c(O)c1", "pEC50": 5.77}

QUERY: Dear colleague, I am looking for the recorded pEC50 of the following compound: NCC(O)c1ccc(O)c(O)c1 (racemic) [norepinephrine]
RESULT: 5.20
